This collection of values is drawn from ChEMBL document CHEMBL4765397.

Examples of compounds with documented IC50 follow.
System: HepG2
Assay: Antiproliferative activity against human HepG2 cells assessed as reduction in cell viability after 48 hrs by MTT assay
Type: functional, cell-based
Conditions: HepG2, 48 h

MOLECULAR_STRING	IC50, µM
O=C(c1ccc2nc(Nc3ccc(-c4nc(N5CCOCC5)nc(N5CCOCC5)n4)cc3)[nH]c2c1)N1CCOCC1	1.3
C[C@H](NC(=O)c1ccc2nc(Nc3ccc(-c4nc(N5CCOCC5)nc(N5CCOCC5)n4)cc3)[nH]c2c1)C(N)=O	7.9
NC(=O)[C@H]1CCCN1C(=O)c1ccc2nc(Nc3ccc(-c4nc(N5CCOCC5)nc(N5CCOCC5)n4)cc3)[nH]c2c1	23
